Entries and their reduction of enzyme activity, NEW peptide alone
tgt: β-galactosidase (β-Gal) (Escherichia coli, UniProt P00722)
Sequence (P00722 2-1024): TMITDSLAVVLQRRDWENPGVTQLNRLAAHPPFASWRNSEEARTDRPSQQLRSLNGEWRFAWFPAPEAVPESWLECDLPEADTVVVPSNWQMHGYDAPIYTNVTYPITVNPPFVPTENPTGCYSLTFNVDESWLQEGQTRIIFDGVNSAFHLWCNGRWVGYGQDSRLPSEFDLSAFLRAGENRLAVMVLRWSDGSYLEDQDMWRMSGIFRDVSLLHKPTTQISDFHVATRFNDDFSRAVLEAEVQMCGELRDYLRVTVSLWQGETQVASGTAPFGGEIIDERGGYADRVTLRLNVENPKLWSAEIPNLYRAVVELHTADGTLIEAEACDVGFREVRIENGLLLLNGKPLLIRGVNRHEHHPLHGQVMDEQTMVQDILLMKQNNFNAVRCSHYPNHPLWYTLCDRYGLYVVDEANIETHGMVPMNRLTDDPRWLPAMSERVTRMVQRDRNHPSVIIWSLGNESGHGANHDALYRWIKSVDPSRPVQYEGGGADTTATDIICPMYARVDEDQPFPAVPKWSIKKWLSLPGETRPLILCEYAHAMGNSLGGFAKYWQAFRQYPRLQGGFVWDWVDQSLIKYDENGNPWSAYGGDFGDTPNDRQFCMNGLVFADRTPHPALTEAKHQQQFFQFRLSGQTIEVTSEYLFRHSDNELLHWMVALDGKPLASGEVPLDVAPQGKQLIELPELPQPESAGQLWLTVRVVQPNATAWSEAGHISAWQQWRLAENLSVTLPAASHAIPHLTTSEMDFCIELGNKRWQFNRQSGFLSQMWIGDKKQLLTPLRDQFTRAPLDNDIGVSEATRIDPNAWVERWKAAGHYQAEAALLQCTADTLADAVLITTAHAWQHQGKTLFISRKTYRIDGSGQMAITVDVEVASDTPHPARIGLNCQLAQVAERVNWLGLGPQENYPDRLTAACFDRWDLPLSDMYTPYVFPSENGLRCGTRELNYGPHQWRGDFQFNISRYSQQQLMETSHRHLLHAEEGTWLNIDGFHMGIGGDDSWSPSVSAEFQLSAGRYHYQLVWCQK
protocolDescription: biochemical
Set-up: purchased Sigma (St. Louis, MO, USA)
experimentalParameters: 100 μM peptide by itself; 100 μM RBG, pH 7.4 10 mM potassium phosphate, 100 μM MgCl2, 25 °C, 20 min preincubation, at least three replicates
Method: Solution-based enzyme assays were performed on SpectraMax M5 96 well plate readers (Molecular Device, Sunnyvale, CA, USA) as described previously. […] The β-gal-catalyzed hydrolysis of RBG was fluorescently monitored at 590 nm (resorufin) with the excitation at 540 nm. […] The reaction rate was determined by the initial velocity of the linear reaction. […] The enzyme inhibition was also quantitatively characterized using the inhibition percentage that was calculated using the following equation: […]

Below, 2 sequences whose answers are already recorded.
>  <residueCodes>
MHNHAFNDNHGRGPTAWGSC [NEW-4]

>  <valueMeasured>
~ 26%

$$$$
>  <residueCodes>
HISPQHMMAYSPKAFDYGSC [NEW-2]

>  <valueMeasured>
~ 12%

$$$$

Alright, here's another sequence for you.
Problem: Please list reduction of enzyme activity, NEW peptide alone recorded for the sequence YDTLHRNRQMMDWQFEPGSC [NEW-3]
Result: ~ 19%

---

tgt: β-galactosidase (β-Gal) (Escherichia coli, UniProt P00722)
protocolDescription: biochemical
Parameters: purchased Sigma (St. Louis, MO, USA)
experimentalParameters: 100 μM NEW peptide + 2 μM PEP-1; 100 μM RBG, pH 7.4, 25 °C, 20 min preincubation
Protocol: Solution-based enzyme assays were performed on SpectraMax M5 96 well plate readers (Molecular Device, Sunnyvale, CA, USA) as described previously. […] The β-gal-catalyzed hydrolysis of RBG was fluorescently monitored at 590 nm (resorufin) with the excitation at 540 nm. […] The reaction rate was determined by the initial velocity of the linear reaction. […] The enzyme inhibition was also quantitatively characterized using the inhibition percentage that was calculated using the following equation: […]
Overview of recorded reduction of enzyme activity, combination with PEP-1 for various sequences

Problem: # return reduction of enzyme activity, combination with PEP-1 for YDTLHRNRQMMDWQFEPGSC [NEW-3] , test system: β-galactosidase (β-Gal) (Escherichia coli, UniProt P00722)
Result: ~ 86%

Problem: Please respond with reported reduction of enzyme activity, combination with PEP-1 (system β-galactosidase (β-Gal) (Escherichia coli, UniProt P00722)) for HISPQHMMAYSPKAFDYGSC [NEW-2] .
Result: ~ 73%

Problem: Would you please give the reported reduction of enzyme activity, combination with PEP-1 of MHNHAFNDNHGRGPTAWGSC [NEW-4] with β-galactosidase (β-Gal) (Escherichia coli, UniProt P00722)?
Result: 91%

Problem: Output reported reduction of enzyme activity, combination with PEP-1 of the sequence GVSHLHWIKMLNETTVMGSC [NEW-1] on β-galactosidase (β-Gal) (Escherichia coli, UniProt P00722).
Result: ~ 70%

---

tgt: β-galactosidase (β-Gal) (Escherichia coli)
protocolDescription: biochemical
Set-up: purchased Sigma (St. Louis, MO, USA)
Where no end group is shown, it is not given here.
propertyMeasured: IC50

Problem: Give IC50 for this entry on β-galactosidase (β-Gal) (Escherichia coli): RVFKRKRWLHVSRYYFGSC [PEP-1]
Result: ~1600 nM
